The measured values listed here are drawn from patent US9340549B2.

Recorded log10 IC50 values for a group of compounds are listed next.
assaySystem: 6×HIS-tankyrase 1 (1091-1325) (Homo sapiens (Human), UniProt O95271)
Sequence (O95271 1091-1325): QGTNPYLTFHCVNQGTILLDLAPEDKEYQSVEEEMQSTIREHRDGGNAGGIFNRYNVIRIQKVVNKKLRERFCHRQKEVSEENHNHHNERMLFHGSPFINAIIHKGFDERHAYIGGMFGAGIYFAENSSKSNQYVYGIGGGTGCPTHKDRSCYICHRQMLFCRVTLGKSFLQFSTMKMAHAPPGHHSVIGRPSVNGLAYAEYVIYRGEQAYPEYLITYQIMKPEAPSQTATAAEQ
protocolText: biochemical
Assay type: biochemical
details: […] enzyme, 400 nM NAD, 60 minutes at room temperature; read-out: TNKS1 IP IC50
measurementKind: log10 IC50 (log10 of the value in nM)

> print(dat)
                                   compound  measurement
1  CC1(C)OC(=O)N([C@H]2CC[C@H](NC(=O)c3ccc4cc[nH]c4n3)CC2)[C@H]1c1ccccc1         1.42
2  CC1(C)OC(=O)N([C@H]2CC[C@H](NC(=O)c3cccc4[nH]ncc34)CC2)[C@H]1c1ccccc1         2.93
3  C[C@@]1(c2ccccc2)CN([C@H]2CC[C@@H](n3c(=O)[nH]c4cc(C#N)ccc43)CC2)C(=O)O1 (stereo in doubt)         0.48
4  COc1ccc([C@H]2N(c3ccc(C(=O)Nc4cccc5cccnc45)cc3)C(=O)OC2(C)C)cc1         3.44
5  CC1(C)OC(=O)N([C@H]2CC[C@H](c3cc(C4=NCCCN4)c[nH]c3=O)CC2)[C@H]1c1ccccc1         2.89
6  CC1(C)OC(=O)N([C@H]2CC[C@H](c3cnc4[nH]c(=O)n(-c5ncccn5)c4c3)CC2)[C@@H]1c1ccccc1 (single isomer, unassigned)         1.43
7  CC1(C)OC(=O)N([C@H]2CC[C@H](c3nnc(-c4ccccc4)o3)CC2)[C@@H]1c1ccccc1         1.51

###

Recorded IC50 values for a group of compounds are listed next.
Tested on: 8×TCF promoter-driven Firefly luciferase (Wnt reporter) in HEK-293 cells
protocolText: 2H9-STF assay, Wnt ligand activated HEK-293 assay in WT APC cellular context
Assay type: cell-based
details: Homo sapiens, HEK293; HEK-293 reporter cells, 200 ng/mL mouse Wnt3a, 18 to 24 hours; read-out: 2H9-Wnt3a-STF-FF/RL * 100 IC50
measurementKind: IC50 (nM)

> print(dat)
                                   compound  measurementkind  unitabbrev  measurement
1  CC1(C)OC(=O)N([C@H]2CC[C@H](n3c(=O)[nH]c4ccccc43)CC2)C1c1ccccc1 (some centres unmarked) [Example 35]             IC50          nM          543
2  CC1(C)OC(=O)N([C@H]2CC[C@H](n3c(=O)[nH]c4cccnc43)CC2)[C@H]1c1ccccc1 [Example 37]             IC50          nM          183
3  CC1(C)OC(=O)N(c2ccc(-c3cnc(N)c(-c4ncccn4)c3)cc2)[C@H]1c1ccccc1 [Example 65]             IC50          nM         95.9
4  CC1(C)OC(=O)N([C@H]2CC[C@H](C(=O)Nc3cccc4cccnc34)CC2)[C@H]1c1ccccc1 [Example 32]             IC50          nM         92.8
5  CC1(C)OC(=O)N([C@H]2CC[C@H](NC(=O)c3cccc4cccnc34)CC2)[C@@H]1c1ccccc1 (single isomer, unassigned) [Example 28]             IC50          nM          113

###

assaySystem: 6×HIS-tankyrase 1 (1091-1325) (Homo sapiens (Human))
protocolText: biochemical
Assay type: biochemical
details: […] enzyme, 400 nM NAD, 60 minutes at room temperature; read-out: TNKS1 IP IC50
measurementKind: IC50 (nM)

> print(dat)
                                    compound  measurementkind  unitabbrev  censoringsign  measurement
 1  CC1(C)OC(=O)N([C@H]2CC[C@H](NC(=O)c3ccc4scnc4c3)CC2)[C@H]1c1ccccc1 [Example 150]             IC50          nM              =         1540
 2  C[C@]1(c2ccccc2)CN([C@H]2CC[C@H](n3c(=O)[nH]c4cc(C#N)ccc43)CC2)C(=O)O1 (single isomer, unassigned) [Example 94]             IC50          nM              =          270
 3  CC1(C)OC(=O)N(c2ccc(C(=O)Nc3cccc4cccnc34)cc2)[C@H]1c1ccccn1 [Example 123]             IC50          nM              =          228
 4  CC1(C)OC(=O)N(c2ccc(-c3cc(-c4ccccn4)cnn3)cc2)[C@H]1c1ccccc1 [Example 40]             IC50          nM              =          621
 5  C[C@]1(c2ccccc2)CN([C@H]2CC[C@H](n3c(=O)[nH]c4cnccc43)CC2)C(=O)O1 (single isomer, unassigned) [Example 91]             IC50          nM              =         9.01
 6  CC1(C)OC(=O)N(c2ccc(C(=O)Nc3cccc4cccnc34)cc2)[C@@H]1c1cccnc1 [Example 10]             IC50          nM              =         4450
 7  CC1(C)OC(=O)N([C@H]2CC[C@H](NC(=O)c3csc(-c4ccncc4)n3)CC2)[C@H]1c1ccccc1 [Example 167]             IC50          nM              >        46300
 8  COc1ccc([C@@H]2N(c3ccc(C(=O)Nc4cccc5cccnc45)cc3)C(=O)OC2(C)C)cc1 [Example 113]             IC50          nM              =          130
 9  CC1(C)OC(=O)N(c2ccc(C(=O)Nc3cccc4cccnc34)cc2)[C@H]1c1ccc(F)cc1 [Example 2]             IC50          nM              =          307
10  CC1(C)OC(=O)N([C@H]2CC[C@H](NC(=O)c3coc(-c4ccccc4)n3)CC2)[C@H]1c1ccccc1 [Example 164]             IC50          nM              =         51.9
11  O=C(Nc1cccc2cccnc12)c1ccc(N2C(=O)OC3(CCCCC3)C2c2ccccc2)cc1 (stereo not shown) [Example 46]             IC50          nM              =         5170
12  CC1(C)OC(=O)N([C@H]2CC[C@H](n3c(=O)[nH]c4cnc(C#N)cc43)CC2)[C@H]1c1ccccc1 [Example 54]             IC50          nM              =         7.42
13  CC(C)c1cc(C(=O)N[C@H]2CC[C@H](N3C(=O)OC(C)(C)[C@@H]3c3ccccc3)CC2)[nH]n1 [Example 154]             IC50          nM              =         2320
14  CC1(C)OC(=O)N([C@@H]2CC=C(c3cnc4ccn(-c5ncccn5)c4c3)CC2)[C@H]1c1ccccc1 (mixture of isomers) [Example 173]             IC50          nM              =         9.26
15  CC1(C)OC(=O)N([C@H]2CC[C@H](NC(=O)c3cnn4cccnc34)CC2)[C@H]1c1ccccc1 [Example 146]             IC50          nM              =         9.18
16  CC1(C)OC(=O)N([C@H]2CC[C@H](NC(=O)n3ccc4cccnc43)CC2)[C@H]1c1ccccc1 [Example 58]             IC50          nM              =         7.46
17  CC1(C)OC(=O)N([C@H]2CC[C@H](n3ncc4cc(C#N)ccc43)CC2)[C@H]1c1ccccc1 [Example 181]             IC50          nM              =          714
18  CC1(C)OC(=O)N([C@H]2CC[C@H](c3cc(-c4ncccn4)c[nH]c3=O)CC2)[C@@H]1c1ccccc1 [Example 82]             IC50          nM              =          195
19  CC1(C)OC(=O)N([C@H]2CC[C@H](c3c[nH]c(=O)c(-c4ncccn4)c3)CC2)[C@H]1c1ccccc1 [Example 97]             IC50          nM              =          267
20  CC1(C)OC(=O)N(c2ccc(-n3cc(-c4ncccn4)ccc3=O)cc2)[C@H]1c1ccccc1 [Example 127]             IC50          nM              =          280
21  CC1(C)OC(=O)N([C@H]2CC=C(c3cc(-c4ncccn4)c[nH]c3=O)CC2)[C@H]1c1ccccc1 (single isomer, unassigned) [Example 6]             IC50          nM              =         46.8
22  CC1(C)OC(=O)N(c2ccc(-c3cnc(N)c(-c4ncc(F)cn4)c3)cc2)[C@H]1c1ccccc1 [Example 64]             IC50          nM              =           85
23  CC1(C)OC(=O)N([C@H]2CC[C@H](n3ncc4cc(C#N)ccc43)CC2)[C@@H]1c1ccccc1 [Example 180]             IC50          nM              =          915
24  CC1(C)OC(=O)N([C@H]2CC[C@H](NC(=O)c3nccs3)CC2)[C@H]1c1ccccc1 [Example 160]             IC50          nM              =         1460
25  CC1(C)OC(=O)N(c2ccc(-c3cnc(N)c(-c4cnnc(Cl)c4)c3)cc2)[C@H]1c1ccccc1 (single isomer, unassigned) [Example 101]             IC50          nM              =         16.2
26  CC1(C)OC(=O)N([C@H]2CC[C@H](NC(=O)c3nc4ccccc4[nH]3)CC2)[C@H]1c1ccccc1 [Example 157]             IC50          nM              =         76.8
27  CC1(C)OC(=O)N([C@@H]2CC=C(c3cnc4cc[nH]c4c3)CC2)[C@H]1c1ccccc1 (mixture of isomers) [Example 169]             IC50          nM              =         88.6
28  CC1(C)OC(=O)N([C@H]2CC[C@H](NC(=O)c3cc4ccncc4[nH]3)CC2)[C@H]1c1ccccc1 [Example 149]             IC50          nM              =           34
